Test: In vitro hepatocyte metabolic stability, mouse
Format: in vitro ADME
Conditions: hepatocytes (cryopreserved, suspension), 0.5×10^6 cells/mL
Method: • 1. Experimental objective: The aim of the study was to assess the stability of the compounds in hepatocytes of different species. • 2. Experimental steps: A variety of 96-well precipitation plates were prepared and labeled as T0, T15, T30, T60, T90, T0-MC, T90-MC, and blank matrix, respectively. […] Viability was calculated using trypan blue staining. […] All samples were mixed well and analyzed using LC/MS/MS methods.

| line notation | half-life at 1 μM / min |
| --- | --- |
| COC12CC([C@H](CC(=O)O)c3ccc(Cl)c(NC(=O)[C@H](c4ccc(Cl)cc4)[C@@H](C)C(F)(F)F)c3)(C1)C2 | 85.2 |
